Tested on: blackgrass
assay-text: Test B pre/postemergence blackgrass
Assay type: in vivo, Alopecurus myosuroides
assay-conditions: Preemergence, Rate 62 g/ha; scale of 0 to 10 where 0 is no effect and 10 is complete control

molecule: COc1nc(OC)nc(N(C(=O)n2oc(=O)n(-c3ccccc3C)c2=O)C(C)C)n1 [Compound 181]
Blackgrass plant response rating: 0
//
molecule: CC[C@H](C)n1c(=O)on(C(=O)N(c2ccc(F)cc2F)C(C)C)c1=O [Compound 666]
Blackgrass plant response rating: 6
//
molecule: CSc1ccc(N(C(=O)n2oc(=O)n(-c3ccccc3C)c2=O)C(C)C)cc1 [Compound 205]
Blackgrass plant response rating: 0
